# assay_text: Inhibitory ratio at 1.0 mg/ear
# Assay type: functional
readout_label: Ratio

[in] What value of measured Ratio is listed for O=c1c(O)c(-c2ccc(O)c(O)c2)oc2cc(O)cc(O)c12 ?
[out] <40

[in] // next record CCCCCCCCCCCCCCCCCCCC(O)CC(O)CCCCC (stereo unspecified)
[out] <82

[in] Also check CCCCCCCCCCCCCCCCCCCCCC(O)CC(O)CCCCC (stereo unspecified)
[out] <85

[in] Repeat for the following compound: C[C@]12CCC(=O)C=C1CCC1[C@@H]2[C@@H](O)C[C@@]2(C)[C@H]1CC[C@]2(O)C(=O)CO (single isomer, unassigned) [HYDROCORTISONE]
[out] <99

[in] Try this compound next: COc1ccc2c(c1)c(CC(=O)O)c(C)n2C(=O)c1ccc(Cl)cc1
[out] <96

[in] And then CCCCCCCC(O)CC(O)CCCCC (stereo unspecified) , what is it?
[out] 23

The measured values listed here are drawn from ChEMBL document CHEMBL1128316.
